pKd: −log10 of the molar value.
In what follows, each item is paired with its pKd for Bcl-XL (Homo sapiens (Human)).

Worked cases, pKd given:
{"columns": ["compound", "tested-target", "result"],
 "data": [
  ["CC1(C)CCC(CN2CCN(c3ccc(C(=O)NS(=O)(=O)c4ccc(NC[C@H]5CC[C@](C)(O)CC5)c([N+](=O)[O-])c4)c(Oc4cnc5[nH]ccc5c4)c3)CC2)=C(C23CC(C(F)(F)F)(C2)C3)C1 [Example 32]", "Bcl-XL (Homo sapiens (Human))", "< 7.00"],
  ["CC1(C)CCC(C23CC(C)(C2)C3)=C(CN2CCN(c3ccc(C(=O)NS(=O)(=O)c4ccc(N[C@H](CCN5CCC(O)CC5)CSc5ccccc5)c(S(=O)(=O)C(F)(F)F)c4)cc3)CC2)C1 [Example 48]", "Bcl-XL (Homo sapiens (Human))", "7.00 to 8.00"]
]}

Supply pKd measured with Bcl-XL (Homo sapiens (Human)) for CC1(C)CCC(CN2CCN(c3ccc(C(=O)NS(=O)(=O)c4ccc(NCC5CCOCC5)c([N+](=O)[O-])c4)c(Oc4cnc5[nH]ccc5c4)c3)CC2)=C(C23CC(C)(C2)C3)C1 [Example 9] . < 7.00

Supply pKd measured with Bcl-XL (Homo sapiens (Human)) for CC1(C)CCC(CN2CCN(c3ccc(C(=O)NS(=O)(=O)c4ccc(OCC5(F)CCOCC5)c([N+](=O)[O-])c4)c(Oc4cnc5[nH]ccc5c4)c3)CC2)=C(C23CC(C(F)F)(C2)C3)C1 [Example 36] . 7.00 to 8.00

Supply pKd measured with Bcl-XL (Homo sapiens (Human)) for CC1(C)CCC(CN2CCN(c3ccc(C(=O)NS(=O)(=O)c4ccc(OCC5(F)CCOCC5)c([N+](=O)[O-])c4)c(Oc4cnc5[nH]ccc5c4)c3)CC2)=C(C23CC(C)(C2)C3)C1 [Example 16] . < 7.00

Supply pKd measured with Bcl-XL (Homo sapiens (Human)) for CN1CCC(F)(CNc2ccc(S(=O)(=O)NC(=O)c3ccc(N4CCN(CC5=C(C67CC(C)(C6)C7)CC(C)(C)CC5)CC4)cc3Oc3cnc4[nH]ccc4c3)cc2[N+](=O)[O-])CC1 [Example 13] . < 7.00

Supply pKd measured with Bcl-XL (Homo sapiens (Human)) for CC1(C)CCC(CN2CCN(c3ccc(C(=O)NS(=O)(=O)c4ccc(NCC5CCOCC5)c([N+](=O)[O-])c4)c(Oc4cnc5[nH]ccc5c4)c3)CC2)=C(C23CC(F)(C2)C3)C1 [Example 10] . < 7.00

Supply pKd measured with Bcl-XL (Homo sapiens (Human)) for CC1(C)CCC(CN2CCN(c3ccc(C(=O)NS(=O)(=O)c4ccc(NCC5(F)CCOCC5)c([N+](=O)[O-])c4)c(Oc4cnc5[nH]ccc5c4)c3)CC2)=C(C23CC(C(F)F)(C2)C3)C1 [Example 35] . < 7.00

Supply pKd measured with Bcl-XL (Homo sapiens (Human)) for CCC12CC(C3=C(CN4CCN(c5ccc(C(=O)NS(=O)(=O)c6ccc(NCC7(F)CCOCC7)c([N+](=O)[O-])c6)c(Oc6cnc7[nH]ccc7c6)c5)CC4)CCC(C)(C)C3)(C1)C2 [Example 25] . < 7.00

Supply pKd measured with Bcl-XL (Homo sapiens (Human)) for CC1(C)CCC(CN2CCN(c3ccc(C(=O)NS(=O)(=O)c4ccc(NCC5CC6(CCOCC6)C5)c([N+](=O)[O-])c4)c(Oc4cnc5[nH]ccc5c4)c3)CC2)=C(C23CC(C)(C2)C3)C1 [Example 11] . < 7.00

Supply pKd measured with Bcl-XL (Homo sapiens (Human)) for CC1(C)CCC(CN2CCN(c3ccc(C(=O)NS(=O)(=O)c4ccc(NCC5(F)CCOCC5)c([N+](=O)[O-])c4)c(Oc4cnc5[nH]ccc5c4)c3)CC2)=C(C23CC(C)(C2)C3)C1 [Example 15] . < 7.00

Supply pKd measured with Bcl-XL (Homo sapiens (Human)) for CN1CCC(F)(CNc2ccc(S(=O)(=O)NC(=O)c3ccc(N4CCN(CC5=C(C67CC(C(F)F)(C6)C7)CC(C)(C)CC5)CC4)cc3Oc3cnc4[nH]ccc4c3)cc2[N+](=O)[O-])CC1 [Example 38] . 7.00 to 8.00
